measured-property: melting point (°C)

structure-notation	measured-property	value
CCc1ccc(CCNC(=O)c2cc(Cl)ccc2OC)cc1S(=O)(=O)NC(=S)NC	melting point	155
CNC(=S)NS(=O)(=O)c1cc(CCNC(=O)c2cc(Cl)ccc2OC)ccc1C	melting point	183
CNC(=O)NS(=O)(=O)c1cc(CCCNC(=O)c2cc(Cl)ccc2OC)ccc1OC	melting point	285
CCc1ccc(CCNC(=O)c2cc(Cl)ccc2OC)cc1S(=O)(=O)NC(=O)NC	melting point	207

---

Reported melting point values follow for various compounds

Use the examples below as a reference point.
structure-notation	melting point
CNC(=S)NS(=O)(=O)c1cc(CCNC(=O)c2cc(F)ccc2OC)ccc1OC	182 to 185 °C
CCOc1ccc(CCNC(=O)c2cc(Cl)ccc2OC)cc1S(=O)(=O)NC(=O)NC	190 to 195 °C

// below: melting point requested for another compound
Entry under review: CNC(=O)NS(=O)(=O)c1cc(CCNC(=O)c2cc(F)ccc2OC)ccc1OC . Reported melting point?
199 to 200 °C

The reported measurements were obtained from patent US6506937B2.
